The values you see were collected from patent US20120213771A1.

tgt: T1, recombinant human CD27/TNFRSF7/Fc chimera (R&D Systems Catalog No. 382-CD) (UniProt P26842 20-191)
T1 chain: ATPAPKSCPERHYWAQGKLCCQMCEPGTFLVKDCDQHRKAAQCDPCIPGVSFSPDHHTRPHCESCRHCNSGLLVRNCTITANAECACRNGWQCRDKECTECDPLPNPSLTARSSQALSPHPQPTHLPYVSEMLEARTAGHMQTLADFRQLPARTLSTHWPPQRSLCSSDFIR
method: Biacore SPR
Measured Kd accompanies every entry in the list below.
Write the answer as a number in nM, unit excluded.

State the recorded Kd for this entry: 1F5-1H5 (antibody, V domains shown) VH: QVQLVESGGGVVQPGRSLRLSCAASGFTFSSYDMHWVRQAPGKGLEWVAVIWYDGSNKYYADSVKGRFTISRDNSKNTLYLQMNSLRAEDTAVYYCARGSGNWGFFDYWGQGTLVTVSS VL: DIQMTQSPSSLSASVGDRVTITCRASQGISRWLAWYQQKPEKAPKSLIYAASSLQSGVPSRFSGSGSGTDFTLTISSLQPEDFATYYCQQYNTYPRTFGQGTKVEIK
0.186

State the recorded Kd for this entry: 2C2-1A10 (antibody, V domains shown) VH: QVQLVESGGGVVQPGRSLRLSCAASGFTFSSYDIHWVRQAPGKGLEWVAVIWNDGSNKYYADSVKGRFTISRDNSTNSLFLQMNSLRAEDTAVYYCVGGTADLEHWDQGTLVTVSS VL: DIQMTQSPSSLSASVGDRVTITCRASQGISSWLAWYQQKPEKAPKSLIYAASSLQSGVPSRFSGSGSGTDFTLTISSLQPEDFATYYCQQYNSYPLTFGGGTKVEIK
0.0841

State the recorded Kd for this entry: 3H8-1B11 (antibody, V domains shown) VH: EVQLVESGGGLVQPGGSLRLSCAASGFTFSSYWMAWVRQAPGKGLEWLGNIKQDGSEKYYVDSVKGRFTISRDNAKNSLYLQMNSLRAEDTAVYYCVRELGMDWYFDLWGRGTLVTVSS VL: EIVLTQSPATLSLSPGERATLSCRASQSVDSYLAWYQQKPGQAPRLLIYDASNRATGIPARFSGSGSGTDFTLTISNLEPEDFAVYYCQQRSNWPPTFGQGTKVEIK
0.0556

Below: the item to evaluate.
State the recorded Kd for this entry: 1H8-B4 (antibody, V domains shown) VH: QVQLVESGGGVVQPGRSLRLSCAASGFTFNIYDMHWVRQAPGKGLEWVAVIWYDGSNQYYADSVKGRFTISRDNSKNTLYLQMNILRAEDTAVYYCARGTHWGYFDYWGQGTLVTVSS VL: DIQMTQSPSSLSASVGDRVTITCRASQGISSWLAWYQQKPEKAPKSLIYAASNLQSGVPSRFSGSGSGTDFTLTISSLQPEDFATYYCQQYNSYPRTFGQGTKVEIK
0.158
